All figures here come from paper PMC9420858.

Biological target: AR-LBD (GST) (Rattus norvegicus)
Sequence (P15207 651-882 limits assumed): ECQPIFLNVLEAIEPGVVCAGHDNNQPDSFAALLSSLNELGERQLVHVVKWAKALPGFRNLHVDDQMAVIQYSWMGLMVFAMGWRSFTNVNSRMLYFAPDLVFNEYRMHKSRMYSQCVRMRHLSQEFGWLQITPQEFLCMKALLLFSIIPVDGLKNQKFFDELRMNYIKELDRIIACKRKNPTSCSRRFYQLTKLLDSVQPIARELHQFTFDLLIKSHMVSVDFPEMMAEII
Experiment: AR binding, fluorescence polarization (PolarScreen AR Competitor Assay)
Settings: AR binding affinity IC50, fluorescence polarization
pIC50: −log10 of the molar value.
experimental_endpoint: pIC50

Answered examples (7):
Clc1ccc(N2CCN(CCc3ccc(COc4ccc5c(c4)CCC5)cc3)CC2)cc1 [Compound 21]
> 5.70
Clc1cccc(N2CCN(CCc3ccc(COc4ccc5c(c4)CCC5)cc3)CC2)c1Cl [Compound 22]
> 5.52
FC(F)(F)c1ccccc1N1CCN(CCc2ccc(COc3ccc4c(c3)CCC4)cc2)CC1 [Compound 25]
> 5.70
c1ccc(N2CCN(CCc3ccc(COc4ccc5c(c4)CCC5)cc3)CC2)cc1 [Compound 5]
> 5.70
Cc1ccccc1N1CCN(CCc2ccc(COc3ccc4c(c3)CCC4)cc2)CC1 [Compound 8]
> 5.52
COc1ccccc1N1CCN(CCc2ccc(COc3ccc4c(c3)CCC4)cc2)CC1 [Compound 12]
> 5.52
Clc1ccccc1N1CCN(CCc2ccc(COc3ccc4c(c3)CCC4)cc2)CC1 [Compound 19]
> 5.52

Field: next compound
Query: Entry under review: FC(F)(F)c1ccc(N2CCN(CCc3ccc(COc4ccc5c(c4)CCC5)cc3)CC2)cc1 [Compound 26] . Reported pIC50?
Result: > 5.70

---

Target: AR-LBD (GST) (Rattus norvegicus)
Assay: AR binding, fluorescence polarization (PolarScreen AR Competitor Assay)
experimental_endpoint: IC50

Query: Notebook entry, AR-LBD (GST) (Rattus norvegicus) assay: IC50 of COc1cccc(N2CCN(CCc3ccc(COc4ccc5c(c4)CCC5)cc3)CC2)c1 = ?
Result: 2.62 µM

---

Listed here are compounds together with their documented pIC50.
Test system: PC-3 cells
Assay: Antiproliferative activity, CCK-8 assay, PC-3 cells
Type: cell-based
Conditions: PC-3 human prostate cancer cell line, 24 h, mean ± SD of three experiments
Interpret pIC50 as the negative base-10 log of the concentration measured in mol/L.

Answered examples (8):
COc1ccc(N2CCN(CCc3ccc(COc4ccc5c(c4)CCC5)cc3)CC2)cc1
5.05
Clc1cccc(N2CCN(CCc3ccc(COc4ccc5c(c4)CCC5)cc3)CC2)c1Cl
4.63
Fc1ccc(N2CCN(CCc3ccc(COc4ccc5c(c4)CCC5)cc3)CC2)cc1
5.84
COc1cccc(N2CCN(CCc3ccc(COc4ccc5c(c4)CCC5)cc3)CC2)c1
6.06
Fc1ccc(N2CCN(CCc3ccc(COc4ccc5c(c4)CCC5)cc3)CC2)c(F)c1
5.72
Cc1ccc(C)c(N2CCN(CCc3ccc(COc4ccc5c(c4)CCC5)cc3)CC2)c1
5.37
c1ccc(CN2CCN(CCc3ccc(COc4ccc5c(c4)CCC5)cc3)CC2)cc1
4.95
COc1ccccc1N1CCN(CC(O)COc2cccc3ccccc23)CC1 (centres unmarked) [Naftopidil, reference compound]
4.38

Query: Entry under review: COc1ccccc1N1CCN(CCc2ccc(COc3ccc4c(c3)CCC4)cc2)CC1 . Reported pIC50?
Result: 4.59

Query: Entry under review: Clc1cccc(N2CCN(CCc3ccc(COc4ccc5c(c4)CCC5)cc3)CC2)c1 . Reported pIC50?
Result: 5.81
